Measured EC50 of individual entries
Target: human RORγ (Homo sapiens)
Construct: human, NM_005060.3 and from Ser253 to Lys518; expressed in transfected cells; host or cells: CHO cells (transient co-transfection with pG5-Luc reporter)
Sequence (P51449 253-518): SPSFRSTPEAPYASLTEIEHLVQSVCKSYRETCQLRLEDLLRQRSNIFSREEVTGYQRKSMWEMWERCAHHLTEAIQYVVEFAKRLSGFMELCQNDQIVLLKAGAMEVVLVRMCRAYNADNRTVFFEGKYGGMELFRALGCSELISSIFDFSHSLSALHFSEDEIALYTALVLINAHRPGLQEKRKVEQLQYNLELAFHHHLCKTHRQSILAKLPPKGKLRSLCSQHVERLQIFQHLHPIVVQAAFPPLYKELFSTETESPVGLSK
Assay: Luciferase reporter gene assay of inhibitory effect against RORγ transcriptional activity (GAL4-hRORγ plasmid in CHO cells)
Type: cell-based
Details: read-out: LUC EC50 (μM) hRORg
property.measured: EC50

- compound: "CC(C)(C)CCc1cc(-c2onc([C@@H](CCC(=O)O)CC(=O)Nc3ccc(F)cc3Cl)c2C2CC2)no1"
  value.measured: "< 3 µM"
- compound: "CC(C)CCc1nnc(CCC(=O)Nc2cc(F)cc(Cl)c2)n1C1CC1"
  value.measured: "> 3 µM"
- compound: "Cc1cnccc1NC(=O)CCc1nnc(CCC(C)C)n1C1CC1"
  value.measured: "> 3 µM"
- compound: "CCn1c(CCC(=O)Nc2cccc3ccccc23)nnc1CCC1CCCCC1"
  value.measured: "< 3 µM"
- compound: "Cc1ccc(NC(=O)CCc2nnc(C3CC(CC(=O)OC(C)(C)C)C3)n2C2CC2)c(C)c1 (mixture of isomers)"
  value.measured: "> 3 µM"
- compound: "CCn1c(CCC2CCCCC2)nnc1[C@H]1C[C@@H]1C(=O)Nc1cccc2ccccc12 (racemic)"
  value.measured: "> 3 µM"
- compound: "Cc1ccc(NC(=O)C[C@H](CCC(=O)O)c2noc(-c3cc(CC(C)C)on3)c2C2CC2)c(Cl)c1"
  value.measured: "< 3 µM"
- compound: "CC(=O)N1C[C@H](C(=O)Nc2ccc(C)cc2C)[C@@H](c2nnc(C3CC(C(C)C)C3)n2C2CC2)C1 (stereo partly shown)"
  value.measured: "< 3 µM"
- compound: "CCn1c(CCCC(C)(C)C)nnc1[C@H]1CN(C(C)=O)C[C@@H]1C(=O)Nc1ccc(C)cc1C (racemic)"
  value.measured: "< 3 µM"
- compound: "COc1cc(C)ccc1CNC(=O)C[C@H](NC(C)=O)c1nnc(CCCC(C)C)n1C1CC1"
  value.measured: "> 3 µM"
- compound: "Cc1ccc(NC(=O)C[C@H](CCC(=O)O)c2noc(-c3cc(C(F)(F)CC(C)C)on3)c2C2CC2)c(Cl)c1"
  value.measured: "< 3 µM"
- compound: "Cc1c(Cl)cccc1NC(=O)CCc1nnc(CCC2CCCN(C)C2)n1C1CC1 (racemic)"
  value.measured: "> 3 µM"
- compound: "Cc1c(Cl)cccc1NC(=O)CCc1nnc(C2CC(C)C2)n1C1CC1 (mixture of isomers)"
  value.measured: "> 3 µM"
- compound: "Cc1ccc(NC(=O)C[C@H](CCC(=O)O)c2onc(-c3cc(CC(C)(C)C)on3)c2C2CC2)c(Cl)c1"
  value.measured: "< 3 µM"
- compound: "CCn1c(C2Cc3ccccc3C2)nnc1[C@@H]1C[C@@H]1C(=O)Nc1cccc2ccccc12 (racemic)"
  value.measured: "> 3 µM"
- compound: "Cc1ccc(NC(=O)C[C@H](CN2CC(=O)NC2=O)c2nnc([C@H]3C[C@@H](CC(C)C)C3)n2C2CC2)c(C)c1"
  value.measured: "< 3 µM"

====

Biological target: human RORγ (Homo sapiens, UniProt P51449)
Construct: human, NM_005060.3 and from Ser253 to Lys518; expressed in transfected cells; host or cells: CHO cells (transient co-transfection with pG5-Luc reporter)
Assay: Luciferase reporter gene assay of inhibitory effect against RORγ transcriptional activity (GAL4-hRORγ plasmid in CHO cells)
Type: cell-based
Settings: read-out: LUC EC50 hRORg
Measured EC50 of individual entries

- compound: "Cc1ccc(NC(=O)CCc2noc([C@H]3C[C@@H](CC(C)(C)C)C3)c2C2CC2)c(C)c1"
  EC50: "< 3 µM"
- compound: "Cc1ccc(NC(=O)C[C@H](Cc2noc(=O)[nH]2)c2noc([C@H]3C[C@@H](CC(C)C)C3)c2C2CC2)c(C)c1"
  EC50: "< 3 µM"
- compound: "Cc1ccc(NC(=O)C[C@@H](c2nnc([C@H]3C[C@@H](CC(C)C)C3)n2C2CC2)N(C)C(C)C)c(C)c1"
  EC50: "< 3 µM"
- compound: "Cc1ccc(NC(=O)C[C@H](CCc2noc(=O)[nH]2)c2noc([C@H]3C[C@@H](CC(C)C)C3)c2C2CC2)c(C)c1"
  EC50: "< 3 µM"
- compound: "Cc1ccc(NC(=O)C[C@H](CC(C)C)c2nnc(-c3cc(CCC(C)C)on3)n2C2CC2)c(C)c1"
  EC50: "< 3 µM"
- compound: "Cc1ccc(NC(=O)C[C@H](CCCO)c2noc(-c3cn(CCC(C)(C)C)nc3C(F)(F)F)c2C2CC2)c(F)c1"
  EC50: "> 3 µM"
- compound: "CC(C)(C[C@H]1C[C@@H](c2onc(C(CCC(=O)O)CC(=O)Nc3ccc(C(=O)O)cc3Cl)c2C2CC2)C1)C(=O)O (stereo partly shown)"
  EC50: "> 3 µM"

====

Biological target: mouse RORγ (Mus musculus, UniProt P51450)
Construct: mouse, NM_011281.2 and from Ile251 to Lys516; expressed in transfected cells; host or cells: CHO cells (transient co-transfection with pG5-Luc reporter)
Sequence (P51450 251-516): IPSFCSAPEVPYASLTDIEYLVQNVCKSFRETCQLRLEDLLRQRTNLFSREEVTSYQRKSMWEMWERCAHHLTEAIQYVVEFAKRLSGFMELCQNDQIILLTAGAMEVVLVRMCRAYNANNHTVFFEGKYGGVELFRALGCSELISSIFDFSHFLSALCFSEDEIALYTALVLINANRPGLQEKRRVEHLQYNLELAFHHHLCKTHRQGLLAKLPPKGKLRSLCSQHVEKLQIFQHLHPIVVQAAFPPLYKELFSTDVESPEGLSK
Assay: Luciferase reporter gene assay of inhibitory effect against RORγ transcriptional activity (GAL4-mRORγ plasmid in CHO cells)
Type: cell-based
Details: read-out: LUC EC50 (μM) mRORg
Measured EC50 of individual entries

- compound: "COC(=O)C(C)(C)CCCc1nnc(CCC(=O)Nc2cccc(Cl)c2C)n1C1CC1 [Example F-230]"
  EC50: "< 3 µM"
- compound: "CC(C)(C)C(F)(F)c1cc(-c2onc([C@@H](CCC(=O)O)CC(=O)Nc3ccc(F)cc3Cl)c2C2CC2)no1 [Example E-48]"
  EC50: "< 3 µM"
- compound: "Cc1cc(F)ccc1NC(=O)C[C@H](CCC(=O)O)c1noc(-c2cc(CCC(C)(C)C)on2)c1C1CC1 [Example E-37]"
  EC50: "< 3 µM"
- compound: "CC(=O)N1C[C@H](C(=O)Nc2ccc(C)cc2C)[C@@H](c2nnc(-c3cc(CC(C)C)on3)n2C2CC2)C1 [Example F-408]"
  EC50: "< 3 µM"
- compound: "Cc1ccc(NC(=O)CCc2nnc(C3(O)CC(CC(C)C)C3)n2C2CC2)c(C)c1 (single isomer, unassigned) [Example F-430]"
  EC50: "< 3 µM"
- compound: "Cc1ccc(NC(=O)C[C@H](CCC(=O)O)c2noc(-c3nc(C)c(CC(C)C)s3)c2C2CC2)c(Cl)c1 [Example E-27]"
  EC50: "< 3 µM"
- compound: "CC(=O)N1C[C@@H](C(=O)Nc2ccc(C)cc2C)[C@H](c2nnc([C@H]3C[C@H](OC(C)C)C3)n2C2CC2)C1 [Example F-335]"
  EC50: "> 3 µM"
- compound: "COc1ccccc1NC(=O)CCc1nnc(CCC(C)C)n1C1CC1 [Example F-73]"
  EC50: "> 3 µM"
- compound: "Cc1ccc(NC(=O)C[C@H](NC(=O)OCc2ccccc2)c2nnc(CCCC(C)(C)C)n2C2CC2)c(C)c1 [Example F-355]"
  EC50: "< 3 µM"
- compound: "Cc1c(Cl)cccc1NC(=O)CC(CO)c1nnc(CCC(C)C)n1C1CC1 (racemic) [Example F-167]"
  EC50: "< 3 µM"
- compound: "Cc1ccc(NC(=O)C[C@H](CCC(=O)O)c2noc(-c3noc(CC(C)C)c3C)c2C2CC2)c(Cl)c1 [Example E-29]"
  EC50: "< 3 µM"
- compound: "COC(C)(C)CCCc1nnc([C@H]2CN(C(C)=O)C[C@@H]2C(=O)Nc2ccc(C)cc2C)n1C1CC1 (racemic) [Example F-290]"
  EC50: "> 3 µM"
- compound: "CC(C)CCc1nnc(CCC(=O)NC2CCc3ccccc32)n1C1CC1 (racemic) [Example F-83]"
  EC50: "> 3 µM"

====

Measured EC50 of individual entries
Molecular target: human RORγ (Homo sapiens)
Construct: human, NM_005060.3 and from Ser253 to Lys518; expressed in transfected cells; host or cells: CHO cells (transient co-transfection with pG5-Luc reporter)
Sequence (P51449 253-518): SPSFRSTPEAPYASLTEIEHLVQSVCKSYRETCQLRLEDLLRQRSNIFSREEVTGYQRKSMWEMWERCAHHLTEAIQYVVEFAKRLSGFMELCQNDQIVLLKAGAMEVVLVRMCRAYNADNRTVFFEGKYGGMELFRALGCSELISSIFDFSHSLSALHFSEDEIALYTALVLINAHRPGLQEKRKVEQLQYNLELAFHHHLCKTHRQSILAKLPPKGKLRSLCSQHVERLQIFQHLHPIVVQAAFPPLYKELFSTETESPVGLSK
Test: Luciferase reporter gene assay of inhibitory effect against RORγ transcriptional activity (GAL4-hRORγ plasmid in CHO cells)
Type: cell-based
Conditions: read-out: LUC EC50 hRORg

- given.smiles: "Cc1ccc(NC(=O)C[C@H](CC(=O)O)c2noc([C@H]3C[C@@H](CC(C)C)C3)c2C2CC2)cn1"
  EC50: "> 3 µM"
- given.smiles: "Cc1ccc(NC(=O)CCc2noc([C@H]3C[C@@H](CC(C)C)C3)c2CCC(=O)O)c(C)c1"
  EC50: "> 3 µM"
- given.smiles: "Cc1ccc(NC(=O)[C@H]2CN(C(C)C)C[C@@H]2c2nnc([C@H]3C[C@@H](CC(C)C)C3)n2C2CC2)c(C)c1"
  EC50: "< 3 µM"

// provenance: patent US20160137639A1
